Assignment: determine reported Kd for the given compounds.
# tested.on: Serine/threonine-protein kinase PAK 5 (Homo sapiens)
# Sequence (Q9P286 whole entry, the tested form may be a part): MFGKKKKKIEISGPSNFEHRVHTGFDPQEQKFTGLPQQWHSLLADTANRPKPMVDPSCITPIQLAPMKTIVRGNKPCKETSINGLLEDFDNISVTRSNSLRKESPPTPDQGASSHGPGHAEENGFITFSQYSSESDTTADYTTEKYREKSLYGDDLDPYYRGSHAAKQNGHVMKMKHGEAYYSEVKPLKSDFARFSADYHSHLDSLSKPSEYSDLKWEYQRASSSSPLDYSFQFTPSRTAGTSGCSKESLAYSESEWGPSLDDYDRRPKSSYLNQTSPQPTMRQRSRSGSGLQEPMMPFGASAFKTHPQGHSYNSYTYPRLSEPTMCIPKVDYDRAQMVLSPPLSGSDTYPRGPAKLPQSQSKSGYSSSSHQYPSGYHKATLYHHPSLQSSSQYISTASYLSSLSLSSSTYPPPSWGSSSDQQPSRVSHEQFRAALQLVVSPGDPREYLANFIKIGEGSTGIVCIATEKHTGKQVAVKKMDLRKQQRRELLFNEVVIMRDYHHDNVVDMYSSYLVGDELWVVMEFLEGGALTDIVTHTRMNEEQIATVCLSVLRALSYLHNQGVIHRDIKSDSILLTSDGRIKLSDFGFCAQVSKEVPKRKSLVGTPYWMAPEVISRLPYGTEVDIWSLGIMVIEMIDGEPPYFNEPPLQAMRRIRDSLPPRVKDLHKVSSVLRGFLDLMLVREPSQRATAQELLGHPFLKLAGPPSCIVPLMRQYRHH
# assay.comment: Binding affinity to recombinant N-terminal His-FLAG-GST-tagged PAK7 (unknown origin) (425 to 719 residues) expressed in baculovirus infected Sf9 insect cells incubated for 1 hr by TR-FRET assay
Answers are plain numbers, in nM.

line.notation | measured.quantity | units.text | endpoint.value
CO[C@@H]1[C@H](N(C)CCOCCOCCOCCNC(=O)CCC2=[N+]3C(=Cc4c(C)cc(C)n4[B-]3(F)F)C=C2)C[C@H]2O[C@]1(C)n1c3ccccc3c3c4c(c5c6ccccc6n2c5c31)C(=O)NC4 | Kd | nM | 53

Would you kindly look at the next entry?
Query string: Please give the measured Kd for this compound: CO[C@@H]1[C@H](NCCOCCOCCOCCNC(=O)CCC2=[N+]3C(=Cc4c(C)cc(C)n4[B-]3(F)F)C=C2)C[C@H]2O[C@]1(C)n1c3ccccc3c3c4c(c5c6ccccc6n2c5c31)C(=O)NC4
Result string: 40

----------
# tested.on: Serine/threonine-protein kinase SIK1 (Homo sapiens, UniProt P57059)
# Sequence (P57059 whole entry): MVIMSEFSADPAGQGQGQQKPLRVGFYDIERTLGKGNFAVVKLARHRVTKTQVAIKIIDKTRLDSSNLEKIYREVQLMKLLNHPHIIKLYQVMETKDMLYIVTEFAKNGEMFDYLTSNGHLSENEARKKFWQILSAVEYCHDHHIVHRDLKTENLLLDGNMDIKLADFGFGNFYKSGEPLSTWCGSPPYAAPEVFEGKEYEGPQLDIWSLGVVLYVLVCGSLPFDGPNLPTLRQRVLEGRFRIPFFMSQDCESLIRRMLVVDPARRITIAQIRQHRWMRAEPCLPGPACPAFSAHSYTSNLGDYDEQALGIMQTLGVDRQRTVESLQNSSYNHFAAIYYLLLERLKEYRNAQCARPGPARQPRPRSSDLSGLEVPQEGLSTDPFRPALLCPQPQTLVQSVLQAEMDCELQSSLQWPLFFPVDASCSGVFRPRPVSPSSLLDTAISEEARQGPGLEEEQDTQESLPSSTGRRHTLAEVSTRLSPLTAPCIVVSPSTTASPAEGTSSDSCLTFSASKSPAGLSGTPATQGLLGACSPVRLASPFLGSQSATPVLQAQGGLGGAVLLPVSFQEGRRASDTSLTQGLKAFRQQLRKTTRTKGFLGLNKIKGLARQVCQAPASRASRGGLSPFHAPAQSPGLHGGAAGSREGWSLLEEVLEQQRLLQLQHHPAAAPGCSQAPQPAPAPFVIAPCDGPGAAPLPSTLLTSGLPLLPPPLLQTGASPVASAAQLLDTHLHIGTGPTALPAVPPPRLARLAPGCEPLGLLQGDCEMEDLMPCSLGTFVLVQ
# assay.comment: Binding affinity to recombinant full-length N-terminal His-FLAG-tagged SIK1 (unknown origin) expressed in baculovirus infected Sf9 insect cells incubated for 1 hr by TR-FRET assay
measured.quantity: pKd
Give bare numbers, as −log10 of the molar value.

line.notation | pKd
CO[C@@H]1[C@H](N(C)CCOCCOCCOCCNC(=O)CCC2=[N+]3C(=Cc4c(C)cc(C)n4[B-]3(F)F)C=C2)C[C@H]2O[C@]1(C)n1c3ccccc3c3c4c(c5c6ccccc6n2c5c31)C(=O)NC4 | 8.52

Would you kindly look at the next entry?
Query string: Please give the measured pKd for this compound: CO[C@@H]1[C@H](NCCOCCOCCOCCNC(=O)CCC2=[N+]3C(=Cc4c(C)cc(C)n4[B-]3(F)F)C=C2)C[C@H]2O[C@]1(C)n1c3ccccc3c3c4c(c5c6ccccc6n2c5c31)C(=O)NC4
Result string: 8.52

----------
# tested.on: UniProt:Q12866
# Sequence (Q12866 whole entry, the tested form may be a part): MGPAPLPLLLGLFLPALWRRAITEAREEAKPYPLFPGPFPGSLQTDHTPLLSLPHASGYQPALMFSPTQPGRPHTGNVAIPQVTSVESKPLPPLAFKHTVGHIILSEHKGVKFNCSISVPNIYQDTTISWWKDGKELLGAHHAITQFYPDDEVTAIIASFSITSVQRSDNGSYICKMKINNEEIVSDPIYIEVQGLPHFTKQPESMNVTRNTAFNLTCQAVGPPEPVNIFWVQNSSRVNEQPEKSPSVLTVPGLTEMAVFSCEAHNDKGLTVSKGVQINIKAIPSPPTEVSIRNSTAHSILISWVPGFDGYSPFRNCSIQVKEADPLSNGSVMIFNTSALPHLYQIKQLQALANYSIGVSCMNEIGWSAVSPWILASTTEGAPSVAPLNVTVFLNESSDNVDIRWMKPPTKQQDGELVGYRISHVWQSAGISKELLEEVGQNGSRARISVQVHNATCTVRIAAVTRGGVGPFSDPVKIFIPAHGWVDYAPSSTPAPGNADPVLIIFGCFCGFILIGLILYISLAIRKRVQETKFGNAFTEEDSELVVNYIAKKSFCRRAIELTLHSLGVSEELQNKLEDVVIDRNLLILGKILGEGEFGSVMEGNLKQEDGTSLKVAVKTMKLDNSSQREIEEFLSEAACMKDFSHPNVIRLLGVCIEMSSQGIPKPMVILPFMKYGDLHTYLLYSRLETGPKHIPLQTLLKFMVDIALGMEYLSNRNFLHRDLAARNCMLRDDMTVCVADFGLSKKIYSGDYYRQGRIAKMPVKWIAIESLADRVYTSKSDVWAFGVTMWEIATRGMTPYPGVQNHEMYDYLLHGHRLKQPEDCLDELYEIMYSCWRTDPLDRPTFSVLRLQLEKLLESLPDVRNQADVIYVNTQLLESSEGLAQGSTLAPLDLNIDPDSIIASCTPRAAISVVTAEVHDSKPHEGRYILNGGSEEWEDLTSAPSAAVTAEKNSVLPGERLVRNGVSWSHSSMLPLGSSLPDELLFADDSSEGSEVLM
# assay.comment: Binding affinity to recombinant full-length N-terminal His-FLAG-GST-tagged MERTK (unknown origin) (528 to 999 residues) expressed in baculovirus infected Sf9 insect cells incubated for 1 hr by TR-FRET assay
measured.quantity: Kd (nM)
Answers are plain numbers, in nM.

line.notation | units.text | Kd
CO[C@@H]1[C@H](N(C)CCOCCOCCOCCNC(=O)CCC2=[N+]3C(=Cc4c(C)cc(C)n4[B-]3(F)F)C=C2)C[C@H]2O[C@]1(C)n1c3ccccc3c3c4c(c5c6ccccc6n2c5c31)C(=O)NC4 | nM | 108

Would you kindly look at the next entry?
Query string: Please give the measured Kd for this compound: CO[C@@H]1[C@H](NCCOCCOCCOCCNC(=O)CCC2=[N+]3C(=Cc4c(C)cc(C)n4[B-]3(F)F)C=C2)C[C@H]2O[C@]1(C)n1c3ccccc3c3c4c(c5c6ccccc6n2c5c31)C(=O)NC4
Result string: 107

----------
# tested.on: Dual specificity protein kinase CLK2 (Homo sapiens)
# Sequence (P49760 whole entry): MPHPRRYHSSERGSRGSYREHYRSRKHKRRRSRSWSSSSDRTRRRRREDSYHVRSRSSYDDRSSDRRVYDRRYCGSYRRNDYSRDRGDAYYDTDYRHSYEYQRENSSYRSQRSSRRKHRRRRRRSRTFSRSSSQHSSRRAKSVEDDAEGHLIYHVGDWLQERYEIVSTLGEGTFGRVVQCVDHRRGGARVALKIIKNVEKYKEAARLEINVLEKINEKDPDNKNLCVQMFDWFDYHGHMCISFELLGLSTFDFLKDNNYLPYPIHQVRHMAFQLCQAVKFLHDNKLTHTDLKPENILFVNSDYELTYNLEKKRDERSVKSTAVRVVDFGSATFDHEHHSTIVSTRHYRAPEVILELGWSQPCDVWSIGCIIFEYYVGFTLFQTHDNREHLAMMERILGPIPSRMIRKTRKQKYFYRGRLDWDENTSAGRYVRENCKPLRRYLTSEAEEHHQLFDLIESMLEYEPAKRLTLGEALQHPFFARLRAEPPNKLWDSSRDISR
# assay.comment: Binding affinity to recombinant full-length N-terminal His-FLAG-GST-tagged CLK2 (unknown origin) expressed in baculovirus infected Sf9 insect cells incubated for 1 hr by TR-FRET assay
measured.quantity: Kd
Your reply should be a number followed by the unit it is expressed in.

line.notation | endpoint.value
CO[C@@H]1[C@H](N(C)CCOCCOCCOCCNC(=O)CCC2=[N+]3C(=Cc4c(C)cc(C)n4[B-]3(F)F)C=C2)C[C@H]2O[C@]1(C)n1c3ccccc3c3c4c(c5c6ccccc6n2c5c31)C(=O)NC4 | 396 nM

Would you kindly look at the next entry?
Query string: Please give the measured Kd for this compound: CO[C@@H]1[C@H](NCCOCCOCCOCCNC(=O)CCC2=[N+]3C(=Cc4c(C)cc(C)n4[B-]3(F)F)C=C2)C[C@H]2O[C@]1(C)n1c3ccccc3c3c4c(c5c6ccccc6n2c5c31)C(=O)NC4
Result string: 318 nM

----------
# tested.on: Activated CDC42 kinase 1 (Homo sapiens, UniProt Q07912)
# Sequence (Q07912 whole entry, the tested form may be a part): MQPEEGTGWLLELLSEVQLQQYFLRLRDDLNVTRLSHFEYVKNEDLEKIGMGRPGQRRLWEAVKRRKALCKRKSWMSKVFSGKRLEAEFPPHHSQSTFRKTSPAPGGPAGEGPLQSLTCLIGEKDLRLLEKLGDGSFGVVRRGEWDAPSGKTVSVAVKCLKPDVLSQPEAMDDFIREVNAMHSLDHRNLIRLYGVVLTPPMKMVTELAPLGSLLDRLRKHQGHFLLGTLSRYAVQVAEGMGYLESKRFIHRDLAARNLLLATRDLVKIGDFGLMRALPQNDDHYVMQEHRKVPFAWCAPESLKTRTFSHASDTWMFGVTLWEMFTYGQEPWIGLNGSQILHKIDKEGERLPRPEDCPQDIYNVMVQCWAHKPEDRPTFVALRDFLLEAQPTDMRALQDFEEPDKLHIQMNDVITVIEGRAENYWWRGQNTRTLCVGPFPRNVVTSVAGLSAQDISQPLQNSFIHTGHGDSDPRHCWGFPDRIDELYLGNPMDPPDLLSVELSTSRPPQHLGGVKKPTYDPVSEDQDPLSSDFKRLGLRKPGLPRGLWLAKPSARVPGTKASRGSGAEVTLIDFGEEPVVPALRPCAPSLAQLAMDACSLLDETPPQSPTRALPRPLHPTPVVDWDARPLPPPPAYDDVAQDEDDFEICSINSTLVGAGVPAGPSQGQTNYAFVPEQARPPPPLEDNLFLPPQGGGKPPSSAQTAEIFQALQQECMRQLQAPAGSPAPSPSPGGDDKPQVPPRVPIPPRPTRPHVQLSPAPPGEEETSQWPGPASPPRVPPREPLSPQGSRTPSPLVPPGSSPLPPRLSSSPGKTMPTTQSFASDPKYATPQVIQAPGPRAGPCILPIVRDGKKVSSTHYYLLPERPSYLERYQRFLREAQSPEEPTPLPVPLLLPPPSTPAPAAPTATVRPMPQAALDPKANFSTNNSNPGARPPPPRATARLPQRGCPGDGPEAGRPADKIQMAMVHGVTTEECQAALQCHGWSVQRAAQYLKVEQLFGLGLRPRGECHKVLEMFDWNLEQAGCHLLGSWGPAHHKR
# assay.comment: Binding affinity to recombinant N-terminal His-FLAG-GST-tagged TNK2 (unknown origin) (110 to 476 residues) expressed in baculovirus infected Sf9 insect cells incubated for 1 hr by TR-FRET assay
Assignment: determine reported Kd for the given compounds.
Give bare numbers, in nM.

Please state, for each entry, its recorded Kd.
1. CO[C@@H]1[C@H](NCCOCCOCCOCCNC(=O)CCC2=[N+]3C(=Cc4c(C)cc(C)n4[B-]3(F)F)C=C2)C[C@H]2O[C@]1(C)n1c3ccccc3c3c4c(c5c6ccccc6n2c5c31)C(=O)NC4
2. CO[C@@H]1[C@H](N(C)CCOCCOCCOCCNC(=O)CCC2=[N+]3C(=Cc4c(C)cc(C)n4[B-]3(F)F)C=C2)C[C@H]2O[C@]1(C)n1c3ccccc3c3c4c(c5c6ccccc6n2c5c31)C(=O)NC4

Result string:
1. 36
2. 42

----------
Assignment: determine reported pKd for the given compounds.
# tested.on: Protein kinase C gamma type (Homo sapiens)
# assay.comment: Binding affinity to recombinant full-length N-terminal His-FLAG-tagged PRKCG (unknown origin) expressed in baculovirus infected Sf9 insect cells incubated for 1 hr by TR-FRET assay
Answers are plain numbers, as −log10 of the molar value.

line.notation | measured.quantity | endpoint.value
CO[C@@H]1[C@H](N(C)CCOCCOCCOCCNC(=O)CCC2=[N+]3C(=Cc4c(C)cc(C)n4[B-]3(F)F)C=C2)C[C@H]2O[C@]1(C)n1c3ccccc3c3c4c(c5c6ccccc6n2c5c31)C(=O)NC4 | pKd | 7.34

Would you kindly look at the next entry?
Query string: Please give the measured pKd for this compound: CO[C@@H]1[C@H](NCCOCCOCCOCCNC(=O)CCC2=[N+]3C(=Cc4c(C)cc(C)n4[B-]3(F)F)C=C2)C[C@H]2O[C@]1(C)n1c3ccccc3c3c4c(c5c6ccccc6n2c5c31)C(=O)NC4
Result string: 7.14

----------
# tested.on: Serine/threonine-protein kinase TAO1 (Homo sapiens)
# Sequence (Q7L7X3 whole entry): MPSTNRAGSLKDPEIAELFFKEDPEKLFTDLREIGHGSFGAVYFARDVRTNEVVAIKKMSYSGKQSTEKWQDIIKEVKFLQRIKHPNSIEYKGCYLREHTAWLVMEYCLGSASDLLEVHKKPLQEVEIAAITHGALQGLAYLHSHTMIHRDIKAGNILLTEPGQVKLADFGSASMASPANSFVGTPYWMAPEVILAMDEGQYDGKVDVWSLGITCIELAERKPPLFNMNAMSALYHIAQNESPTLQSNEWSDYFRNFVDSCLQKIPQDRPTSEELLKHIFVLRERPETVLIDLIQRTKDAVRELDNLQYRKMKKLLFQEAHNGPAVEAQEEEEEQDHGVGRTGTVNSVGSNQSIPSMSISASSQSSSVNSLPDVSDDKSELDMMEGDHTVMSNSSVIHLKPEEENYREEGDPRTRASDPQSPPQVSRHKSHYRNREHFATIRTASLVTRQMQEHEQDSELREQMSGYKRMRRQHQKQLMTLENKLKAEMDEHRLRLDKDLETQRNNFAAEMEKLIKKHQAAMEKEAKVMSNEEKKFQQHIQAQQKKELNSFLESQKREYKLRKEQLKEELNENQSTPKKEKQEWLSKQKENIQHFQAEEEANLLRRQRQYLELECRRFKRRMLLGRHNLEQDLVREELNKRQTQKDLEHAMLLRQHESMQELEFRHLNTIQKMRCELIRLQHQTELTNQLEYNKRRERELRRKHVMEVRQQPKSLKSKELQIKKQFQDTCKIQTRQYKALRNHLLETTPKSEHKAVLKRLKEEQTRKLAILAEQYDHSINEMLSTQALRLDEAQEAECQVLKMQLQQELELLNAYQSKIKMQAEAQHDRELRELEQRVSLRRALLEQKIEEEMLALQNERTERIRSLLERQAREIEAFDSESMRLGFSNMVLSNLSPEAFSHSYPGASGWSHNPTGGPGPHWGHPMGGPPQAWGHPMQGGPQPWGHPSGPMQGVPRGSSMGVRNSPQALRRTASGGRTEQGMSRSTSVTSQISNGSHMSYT
# assay.comment: Binding affinity to recombinant full-length N-terminal His-FLAG-GST-tagged TAOK1 (unknown origin) (1 to 314 residues) expressed in baculovirus infected Sf9 insect cells incubated for 1 hr by TR-FRET assay
measured.quantity: pKd
Answers are plain numbers, as −log10 of the molar value.

line.notation | pKd
CO[C@@H]1[C@H](N(C)CCOCCOCCOCCNC(=O)CCC2=[N+]3C(=Cc4c(C)cc(C)n4[B-]3(F)F)C=C2)C[C@H]2O[C@]1(C)n1c3ccccc3c3c4c(c5c6ccccc6n2c5c31)C(=O)NC4 | 7.82

Would you kindly look at the next entry?
Query string: Return pKd measured with Serine/threonine-protein kinase TAO1 (Homo sapiens) given this compound: CO[C@@H]1[C@H](NCCOCCOCCOCCNC(=O)CCC2=[N+]3C(=Cc4c(C)cc(C)n4[B-]3(F)F)C=C2)C[C@H]2O[C@]1(C)n1c3ccccc3c3c4c(c5c6ccccc6n2c5c31)C(=O)NC4
Result string: 7.60
